Hello, the source for this data is patent US7094781B2, in case you need it.

Molecular target: human recombinant ETA receptor (Homo sapiens, UniProt P25101)
Sequence (P25101 21-427): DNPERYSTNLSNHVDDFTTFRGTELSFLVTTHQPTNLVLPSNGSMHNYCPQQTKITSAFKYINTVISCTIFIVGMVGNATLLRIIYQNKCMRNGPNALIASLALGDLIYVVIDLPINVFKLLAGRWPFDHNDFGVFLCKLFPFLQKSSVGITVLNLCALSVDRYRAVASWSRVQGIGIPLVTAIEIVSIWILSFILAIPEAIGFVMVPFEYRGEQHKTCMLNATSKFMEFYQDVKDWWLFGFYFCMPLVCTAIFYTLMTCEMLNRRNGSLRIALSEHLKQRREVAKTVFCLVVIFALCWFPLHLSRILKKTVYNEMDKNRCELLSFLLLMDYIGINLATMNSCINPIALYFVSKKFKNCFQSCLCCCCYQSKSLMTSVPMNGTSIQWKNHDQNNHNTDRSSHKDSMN
Test: Inhibition of [125I]ET-1 binding to membranes from CHO cells carrying human ETA receptors
Assay endpoint: IC50
Note: state the figure and append the unit.

Examples with answers:
[[record]]
molecule = "COc1ccccc1Oc1c(NS(=O)(=O)NCc2ccccn2)nc(-c2ncccn2)nc1OCCOc1ncc(Br)cn1 [Example 156]"
experimental_system = "human recombinant ETA receptor (Homo sapiens, UniProt P25101)"
measured_result = "18 nM"

[[record]]
molecule = "COc1cnc(OCCOc2ncnc(NS(=O)(=O)N(C)Cc3ccccc3)c2-c2ccc(Cl)cc2)nc1 [Example 194]"
experimental_system = "human recombinant ETA receptor (Homo sapiens, UniProt P25101)"
measured_result = "9.5 nM"

[[record]]
molecule = "COc1ccc(CNS(=O)(=O)Nc2nc(-c3ncccn3)nc(OCCOc3ncc(Br)cn3)c2Oc2ccccc2OC)cc1OC [Example 166]"
experimental_system = "human recombinant ETA receptor (Homo sapiens, UniProt P25101)"
measured_result = "1 nM"

[[record]]
molecule = "COc1cnc(OCCOc2nc(C3CC3)nc(NS(=O)(=O)NCc3ccccc3)c2Oc2ccccc2OC)nc1 [Example 89]"
experimental_system = "human recombinant ETA receptor (Homo sapiens, UniProt P25101)"
measured_result = "19 nM"


Provide IC50 for all items below, preserving their order.
1. O=S(=O)(NCc1ccccc1)Nc1nc(-c2ccncc2)nc(OCCOc2ncc(Br)cn2)c1-c1ccc(Cl)cc1 [Example 109]
2. O=S(=O)(Nc1ncnc(OCCOc2ncc(Br)cn2)c1-c1ccc(Br)cc1)NC1CC1 [Example 196]
3. CCCCNS(=O)(=O)Nc1ncnc(OCCOc2ncc(SC)cn2)c1-c1ccc(Cl)cc1 [Example 118]
4. COc1cnc(OCCOc2ncnc(NS(=O)(=O)NCc3ccco3)c2-c2ccc(Cl)cc2)nc1 [Example 23]
5. CSc1cnc(OCCOc2ncnc(NS(=O)(=O)NCc3ccccc3)c2-c2ccc(Br)cc2)nc1 [Example 102]
6. O=S(=O)(NCC1CC1)Nc1ncnc(OCCOc2ncc(Br)cn2)c1-c1ccc(Cl)cc1 [Example 112]
7. CCNS(=O)(=O)Nc1ncnc(OCCOc2ncc(SC)cn2)c1-c1ccc(Cl)cc1 [Example 116]
8. Cc1ccc(-c2c(NS(=O)(=O)NCc3ccccc3)nc(-c3ccncc3)nc2OCCOc2ncc(Br)cn2)cc1 [Example 32]

1.94 nM
4.4 nM
0.34 nM
3.6 nM
0.46 nM
0.52 nM
1.3 nM
3.5 nM

Provide IC50 for all items below, preserving their order.
1. COc1cnc(OCCOc2ncnc(NS(=O)(=O)NCc3ccccc3)c2-c2ccc(Br)cc2)nc1 [Example 101]
2. CCNS(=O)(=O)Nc1nc(-c2ccncc2)nc(OC)c1Oc1ccccc1OC [Example 7]
3. COc1ccccc1Oc1c(NS(=O)(=O)Nc2ccc(C(C)C)cc2)nc(-c2ccncc2)nc1OCCOc1ncc(Br)cn1 [Example 5]
4. COc1ccc(Cl)c(Oc2c(NS(=O)(=O)NCc3ccccc3)ncnc2OCCOc2ncc(Br)cn2)c1 [Example 212]

1: 1.24 nM; 2: 1240 nM; 3: 28 nM; 4: 3.1 nM
